Measured pEC50 of individual entries
Test system: HCV genotype 1b replicon
Test: HCV replicon assay
Type: cell-based
Conditions: Hepatitis C virus, Huh-7, read-out: EC50 (replicon reproduction), genotype 1b HCV replicon-bearing human hepatoma cell line (Huh-7)
pEC50: −log10 of the molar value.

Compound: CC(C)OC(=O)[C@@H](C)NP(=O)(OC[C@H]1O[C@@H](n2ccc(=O)[nH]c2=O)[C@](C)(Cl)[C@@H]1O)Oc1ccccc1 (single isomer, unassigned) [Compound 40i Diastereomer 1]
pEC50: < 4.30
--
Compound: CC(C)OC(=O)[C@@H](C)N[P@@](=O)(OC[C@H]1O[C@@H](n2ccc(=O)[nH]c2=O)[C@](C)(F)[C@@H]1O)Oc1ccccc1 [Compound (804a) Ia (RP isomer)]
pEC50: < 4.30

###

Assay: Plasma nucleoside and liver triphosphate PK after single oral dose (Example 4)
Format: in vivo, CD-1 mice
Settings: at 1 μmol/kg; single oral dose 10 mg/kg in PEG 200
Measured Ms Plasma nucleoside AUC of individual entries

Compound: CC(C)OC(=O)[C@@H](C)NP(=O)(OC[C@H]1O[C@@H](n2ccc(=O)[nH]c2=O)[C@](C)(Cl)[C@@H]1O)Oc1ccccc1 (single isomer, unassigned; diastereomer 2) [40i Diastereomer 2]
Ms Plasma nucleoside AUC, M·s: 0.0036

Compound: CC(C)OC(=O)[C@H](C)NP(=O)(OC[C@H]1O[C@@H](n2ccc(=O)[nH]c2=O)[C@](C)(Cl)[C@@H]1O)Oc1ccccc1 (single isomer, unassigned; diastereomer 1) [40ii Diastereomer 1]
Ms Plasma nucleoside AUC, M·s: 0.00349

Compound: CCCCOC(=O)[C@@H](C)NP(=O)(OC[C@H]1O[C@@H](n2ccc(=O)[nH]c2=O)[C@](C)(Cl)[C@@H]1O)Oc1ccccc1 (single isomer, unassigned; diastereomer 2) [202i Diastereomer 2]
Ms Plasma nucleoside AUC, M·s: 0.00612

Compound: C[C@@H](NP(=O)(OC[C@H]1O[C@@H](n2ccc(=O)[nH]c2=O)[C@](C)(Cl)[C@@H]1O)Oc1ccccc1)C(=O)OCc1ccccc1 (single isomer, unassigned; diastereomer 2) [205i Diastereomer 2]
Ms Plasma nucleoside AUC, M·s: 0.00612

###

Assay: Liver triphosphate and plasma prodrug and nucleoside PK after single oral dose (Example 5)
Format: in vivo, Cynomolgus monkeys
Details: oral 10 mg/kg; normalized to 1 μmol/kg dose; read-out: Plasma prodrug Cmax
Readout type: Cmax

Compound: CC(C)OP1(=O)OC[C@H]2O[C@@H](n3ccc(=O)[nH]c3=O)[C@](C)(Cl)[C@@H]2O1 (single isomer, unassigned; diastereomer 2) [37 Diastereomer 2]
Readout value: 840 nM

###

Assay: Cytotoxicity evaluation in Zluc cells (CellTiter-Blue)
Assay type: cell-based, human
Conditions: human, read-out: HCV Replicon CC50
Measured CC50 of individual entries

Compound: CCOc1nc(N)nc2c1ncn2[C@@H]1O[C@H](COP(=O)(N[C@H](C)C(=O)OC(C)C)Oc2ccccc2)C[C@@]1(C)F (single isomer, unassigned) [502a Diastereomer 1]
CC50: < 50 µM

Compound: CC(C)OC(=O)[C@@H](C)NP(=O)(OC[C@H]1O[C@@H](n2ccc(=O)[nH]c2=O)[C@](C)(Cl)[C@@H]1O)Oc1ccccc1 (single isomer, unassigned) [40i Diastereomer 1]
CC50: > 50 µM
